Tested on: KRAS patient-derived spheroids with HUVEC/MSC, viability
Experiment: Anticancer human tumor 941728-121-R-J1-PDC patient-derived lung adenocarcinoma cell line growth inhibition [KRAS2]
Conditions: curve of first compound; second compound 1 µM
MEASURED ENDPOINT: IC50

[[record]]
compound = "Cn1ncnc1[C@H]1c2n[nH]c(=O)c3cc(F)cc(c23)N[C@@H]1c1ccc(F)cc1 + CNCc1ccccc1-c1csc(C(C)Nc2nc(C)nc3cc(OC)c(OC)cc23)c1"
measured_endpoint = "IC50"
reported_measurement = "< 316 pM"

[[record]]
compound = "CC(C)n1nc(-c2ccc3oc(N)nc3c2)c2c(N)ncnc21 + COc1cc2nc(C)nc(NC(C)c3cc(N)cc(C(F)(F)F)c3)c2cc1OC1CCOC1"
measured_endpoint = "IC50"
reported_measurement = "< 316 pM"

[[record]]
compound = "CC(C)n1nc(-c2ccc3oc(N)nc3c2)c2c(N)ncnc21 + C=CC(=O)N1CCN(c2nc(=O)n(-c3c(C)ccnc3C(C)C)c3nc(-c4c(O)cccc4F)c(F)cc23)C(C)C1"
measured_endpoint = "IC50"
reported_measurement = "< 316 pM"


###

Test system: KRAS patient-derived spheroids with HUVEC/MSC, viability
Assay: Anticancer human tumor 941728-121-R-J1-PDC cell line growth inhibition [KRAS2]; active means viability on the fitted dose curve at most 10% of control; inactive means the rest;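 further: spheroids exposed to agents for seven days before readout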
Settings: second compound 3.16 µM; first compound 1 µM
Outcomes: active, inactive

[[record]]
compound = "COc1cc(Nc2ncc3c(n2)-c2ccc(Cl)cc2C(c2c(F)cccc2OC)=NC3)ccc1C(=O)O + CC1OCC2(CCN(c3cnc(Sc4ccnc(N)c4Cl)c(N)n3)CC2)C1N"
category_label = "inactive"

[[record]]
compound = "CCN1CCN(Cc2ccc(Nc3ncc(F)c(-c4cc(F)c5nc(C)n(C(C)C)c5c4)n3)nc2)CC1 + COc1cc2nc(C)nc(NC(C)c3cc(N)cc(C(F)(F)F)c3)c2cc1OC1CCOC1"
category_label = "inactive"

[[record]]
compound = "CC1(C)CCC(CN2CCN(c3ccc(C(=O)NS(=O)(=O)c4ccc(NCC5CCOCC5)c([N+](=O)[O-])c4)c(Oc4cnc5[nH]ccc5c4)c3)CC2)=C(c2ccc(Cl)cc2)C1 + C=CC(=O)N1CCN(c2nc(=O)n(-c3c(C)ccnc3C(C)C)c3nc(-c4c(O)cccc4F)c(F)cc23)C(C)C1"
category_label = "inactive"

[[record]]
compound = "COc1cc(Nc2ncc3c(n2)-c2ccc(Cl)cc2C(c2c(F)cccc2OC)=NC3)ccc1C(=O)O + COc1cc2nc(C)nc(NC(C)c3cc(N)cc(C(F)(F)F)c3)c2cc1OC1CCOC1"
category_label = "inactive"

[[record]]
compound = "COc1cc2nccc(Oc3ccc(NC(=O)C4(C(=O)Nc5ccc(F)cc5)CC4)cc3)c2cc1OC + CNCc1ccccc1-c1csc(C(C)Nc2nc(C)nc3cc(OC)c(OC)cc23)c1"
category_label = "active"


###

Test system: KRAS patient-derived spheroids with HUVEC/MSC, viability
Test: Anticancer human tumor 941728-121-R-J1-PDC cell line growth inhibition [KRAS2];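 further: spheroids exposed to agents for seven days before readout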
Settings: second compound 0.1 µM; first compound 10 µM; stronger effect = lower value
MEASURED ENDPOINT: viability, T/C (%)

[[record]]
compound = "O=C(c1cc(Cc2n[nH]c(=O)c3ccccc23)ccc1F)N1CCN(C(=O)C2CC2)CC1 + COc1cc2nc(C)nc(NC(C)c3cc(N)cc(C(F)(F)F)c3)c2cc1OC1CCOC1"
reported_measurement = 79.2

[[record]]
compound = "CCNC(=O)CC1N=C(c2ccc(Cl)cc2)c2cc(OC)ccc2-n2c(C)nnc21 (stereo not given) + CNCc1ccccc1-c1csc(C(C)Nc2nc(C)nc3cc(OC)c(OC)cc23)c1"
reported_measurement = 28.6

[[record]]
compound = "CCNC(=O)CC1N=C(c2ccc(Cl)cc2)c2cc(OC)ccc2-n2c(C)nnc21 (stereo not given) + C=CC(=O)N1CCN(c2nc(OCC3CCCN3C)nc3c2CCN(c2cccc4cccc(C)c24)C3)CC1CC#N"
reported_measurement = 15.4

[[record]]
compound = "O=C(c1cc(Cc2n[nH]c(=O)c3ccccc23)ccc1F)N1CCN(C(=O)C2CC2)CC1 + CNCc1ccccc1-c1csc(C(C)Nc2nc(C)nc3cc(OC)c(OC)cc23)c1"
reported_measurement = 67.8

[[record]]
compound = "CC1(C)CCC(CN2CCN(c3ccc(C(=O)NS(=O)(=O)c4ccc(NCC5CCOCC5)c([N+](=O)[O-])c4)c(Oc4cnc5[nH]ccc5c4)c3)CC2)=C(c2ccc(Cl)cc2)C1 + COc1cc2nc(C)nc(NC(C)c3cc(N)cc(C(F)(F)F)c3)c2cc1OC1CCOC1"
reported_measurement = 4.58

